# protocol.notes: modulation of AI-2 quorum-sensing luminescence – JMH597 strain, luminescence/OD600 ratio, primary screen (AID 2094);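 also: luminescence divided by OD600 gain over 9 h not by final OD600 alone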
# conditions.used: Vibrio harveyi JMH597 AI-2 luminescence/OD600 ratio, 9 h; at 7.5 µM; 0 = neutral-control median; strain lacks LuxN and CqsS sensors
In all, about 300,000 compounds went through this assay and about 1,200 (0.4%) were called active. Rule as the data show it: active = activity change below about -75% (passing the limit was not always enough); inconclusive = no clear call, values can overlap the other calls. Only a selection was taken, and actives are over-represented in it overall.
Allowed answers: active, inactive

O=C(NC(=O)N1CCSCC1)c1c(Cl)cccc1Cl | inactive
CC1=CC=CC2=N/C(=N\S(=O)(=O)c3ccc(F)cc3F)c3ccccc3CN12 | inactive
CSCCC(NC(=O)COc1ccccc1)C(=O)OCC(=O)c1cc2ccccc2o1 (stereo unspecified) | inactive
COC(=O)C1CCN(C(=O)c2ccc3oc(Cc4ccc(Cl)cc4)nc3c2)CC1 | active
Cc1ccc(-c2cc(C(=O)N3CCc4ccccc4C3)no2)cc1 | inactive

Prompt: I would be grateful if you could indicate the recorded call for C=CCO/N=C/C1=C(O)C(C(=O)OC)C(C)(C)CC1=O (stereo unspecified) .
Completion: inactive

====

# protocol.notes: modulation of AI-2 quorum-sensing luminescence – JMH597 strain, luminescence/OD600 ratio, primary screen (AID 2094);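 also: luminescence divided by OD600 gain over 9 h not by final OD600 alone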
# conditions.used: Vibrio harveyi JMH597 AI-2 luminescence/OD600 ratio, 9 h; at 7.5 µM; 0 = neutral-control median; strain lacks LuxN and CqsS sensors
The campaign covered roughly 300,000 compounds. About 1,200 (0.4%) were called active. Rule as the data show it: active = activity change below about -75% (passing the limit was not always enough); inconclusive = no clear call, values can overlap the other calls. The sample as a whole holds a higher share of actives than the screen did.
Allowed answers: yes = active, no = inactive

Solved entries (count: 2):
CCN(CC(=O)NCc1cccs1)C(=O)c1cccc(S(=O)(=O)Nc2ccccc2OC)c1 | no
CN(C)c1ccc(/C=C/C(=O)c2ccc(C(C)(C)C)cc2)cc1[N+](=O)[O-] | no

Prompt: I would be grateful if you could indicate the recorded call for "CCCc1ccc(OCCNC(=O)c2ccco2)cc1" .
Completion: yes

Prompt: And for "CCCc1ccc(OCC(=O)NNC(=S)NC(=O)c2ccco2)cc1" ?
Completion: no

====

# protocol.notes: modulation of AI-2 quorum-sensing luminescence – JMH597 strain, luminescence/OD600 ratio, primary screen (AID 2094);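 also: luminescence divided by OD600 gain over 9 h not by final OD600 alone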
# conditions.used: Vibrio harveyi JMH597 AI-2 luminescence/OD600 ratio, 9 h; at 7.5 µM; hits give low values; 0 = neutral-control median; strain lacks LuxN and CqsS sensors
Among all 300,000 compounds or so, about 1,200 (0.4%) were called active. Shown is part of a subset that was picked to be rich in actives.
measurement.kind: activity change (%)
Form entry: value (%) — number only.

CCCCCc1ccc(-c2ccc(OCC)cc2)nc1 | -0.256

Prompt: Record request: activity change value, item "Cc1nnc(N/N=C/c2ccccn2)[nH]c1=O"
Completion: -29.7

Prompt: And for "Cc1cc(C(=O)OCC(=O)Nc2ccc(F)c(F)c2)c(C)o1" ?
Completion: -93.5

Prompt: And for "CCOc1ccc(S(=O)(=O)Nc2ccncc2)c(C)c1C" ?
Completion: 21.3

Prompt: And for COc1ccc(S(=O)(=O)NC(C)C(=O)Nc2cccc([N+](=O)[O-])c2)cc1 (configuration not stated) ?
Completion: 16.9

Prompt: And for "Cc1nn(CC(=O)Nc2ccc3c(c2)nc(CN2CCCCC2)n3C)c(=O)c2ccccc12" ?
Completion: 18.4

Prompt: And for "CCOC(=O)c1cc(C(C)C)sc1NC(=O)COC(=O)c1nccnc1N" ?
Completion: 29.5

Prompt: And for "O=C(Nc1cccnc1)c1cccc(S(=O)(=O)N2CCCC2)c1" ?
Completion: 6.26

====

# protocol.notes: modulation of AI-2 quorum-sensing luminescence – JMH597 strain, luminescence/OD600 ratio, primary screen (AID 2094);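 also: luminescence divided by OD600 gain over 9 h not by final OD600 alone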
# conditions.used: Vibrio harveyi JMH597 AI-2 luminescence/OD600 ratio, 9 h; at 7.5 µM; hits give low values; 0 = neutral-control median; strain lacks LuxN and CqsS sensors
Hit rate of the full screen: of about 300,000 compounds, about 1,200 (0.4%) were called active. The entries come from a sample that favours actives as a whole.
measurement.kind: activity change (%)
Form entry: value (%) — number only.

Reference set, count: 8
CN(C)S(=O)(=O)c1ccc(NC(=O)N2CCOCC2)cc1 | 11.7
CC(C)C(C)NC(=O)COc1ncnc2ccccc12 (configuration not stated) | 19.9
COCC(=O)N1CCCC(C(=O)c2ccc(C(F)(F)F)cc2)C1 (configuration not stated) | 13.4
CC(=O)c1nn(-c2ccc(C)cc2)cc1C(=O)c1cccc(Br)c1 | 14.3
O=C(N/N=C/c1ccc([N+](=O)[O-])o1)c1cn(-c2ccccc2)nc1-c1ccc(F)cc1 | 7.69
O=C(CSc1ncn[nH]1)N/N=C/c1ccc(F)cc1 | -5.64
CC(=O)N1c2ccc(S(=O)(=O)N3CCC(C(=O)NC4CCCC(C)C4C)CC3)cc2CC1C (configuration not stated) | 26.4
O=C(CC1SCCNC1=O)Nc1ccc(Cl)cc1 (configuration not stated) | -15

Prompt: Record request: activity change value, item "O=C(OCc1cn(-c2ccc(Cl)c(Cl)c2)nn1)c1ccccc1Cl"
Completion: -28.4

Prompt: And for "CCN(CC(=O)Nc1cccc(S(=O)(=O)N2CCCCC2)c1)Cc1ccccc1" ?
Completion: 24.8

Prompt: And for "O=C(/C=C/Sc1ncn[nH]1)c1ccc(Cl)cc1" ?
Completion: -91.7

Prompt: And for "CCOC(=O)c1cn(Cc2cccc(C)c2)nn1" ?
Completion: 13.8

Prompt: And for Cc1ccsc1C(=O)OCC(=O)c1cc(C)n(CC2CCCO2)c1C (configuration not stated) ?
Completion: 22.3

Prompt: And for "Cc1cc(C)nc(N/N=C/c2ccc([N+](=O)[O-])o2)n1" ?
Completion: -83.7

Prompt: And for "CCOC(=O)c1nn(-c2cccc(C)c2)cc1C(=O)c1ccccc1" ?
Completion: -88.4

====

# protocol.notes: modulation of AI-2 quorum-sensing luminescence – JMH597 strain, luminescence/OD600 ratio, primary screen (AID 2094);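 also: luminescence divided by OD600 gain over 9 h not by final OD600 alone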
# conditions.used: Vibrio harveyi JMH597 AI-2 luminescence/OD600 ratio, 9 h; at 7.5 µM; hits give low values; 0 = neutral-control median; strain lacks LuxN and CqsS sensors
The whole screen tested about 300,000 compounds, of which about 1,200 (0.4%) were called active. The sample holds actives, similar compounds and a random draw of the others, so the mix is not that of the screen.
measurement.kind: activity change (%)
Form entry: value (%) — number only.

Reference set, count: 3
CC(C)(C)c1ccc(CN2C(=O)c3ccccc3S2(=O)=O)cc1 | 21.7
CSc1nsc(NC(=O)Nc2ccccc2)n1 | 37.1
C=CS(=O)c1sc(Cl)c(N2CCOCC2)c1[N+](=O)[O-] (centres undefined) | -83.3

Prompt: Record request: activity change value, item "O=C(Nc1ccc(F)c(Cl)c1)C1CCN(S(=O)(=O)c2cccnc2)CC1"
Completion: -93.8

Prompt: And for "COc1cccc(CNC(=O)CCCC(=O)Nc2cccc([N+](=O)[O-])c2)c1" ?
Completion: 33.3

Prompt: And for "CCCCCCC12CCC(C(=O)O)(CC1)CC2" ?
Completion: 24.4

Prompt: And for "CCOc1ccc(/C=N/OCC(=O)NCc2cccs2)cc1" ?
Completion: 5.49

Prompt: And for "Cc1nc(CN2CCN(C(=O)CCc3nnc(Cc4c[nH]c5ccccc45)o3)CC2)cs1" ?
Completion: 18

Prompt: And for Cc1c(NC(=O)C(C)OC(=O)c2c3c(nc4ccccc24)CCC(C)C3)c(=O)n(-c2ccccc2)n1C (centres undefined) ?
Completion: 5.39

====

# protocol.notes: modulation of AI-2 quorum-sensing luminescence – JMH597 strain, luminescence/OD600 ratio, primary screen (AID 2094);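 also: luminescence divided by OD600 gain over 9 h not by final OD600 alone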
# conditions.used: Vibrio harveyi JMH597 AI-2 luminescence/OD600 ratio, 9 h; at 7.5 µM; 0 = neutral-control median; strain lacks LuxN and CqsS sensors
Out of some 300,000 compounds screened, about 1,200 (0.4%) were called active. Rule as the data show it: active = activity change below about -75% (passing the limit was not always enough); inconclusive = no clear call, values can overlap the other calls. The list comes from a sample in which actives are over-represented; it also holds close analogues and randomly drawn compounds.
Allowed answers: true for active, false for inactive

O=C(/C=C/c1ccco1)Nc1cccc(-c2nc3ccccc3[nH]2)c1 | false
C=C(C)c1cccc(C(C)(C)NC(=O)NC2CCCC2)c1 | false
O=C(Nc1ccc(O)cc1)c1ccc(NC(=O)c2ccco2)cc1 | false

Prompt: I would be grateful if you could indicate the recorded call for O=C(Nc1ccccc1Cl)/C(Cl)=C(\Cl)S(=O)c1ccccc1 (configuration not stated) .
Completion: true

Prompt: And for CC(=O)NC(CC(=O)Nc1cccc(S(=O)(=O)N2CCCC2)c1)c1ccccc1 (configuration not stated) ?
Completion: false

Prompt: And for "N/C(=N\OC(=O)CCc1ccccc1)c1ccc(Cl)cc1" ?
Completion: false

Prompt: And for "Cc1ccc(/C=C/C(=O)Nc2ccc([N+](=O)[O-])c(NC(=O)/C=C/c3ccc(C)o3)c2)o1" ?
Completion: false
